SYSTEM_TESTED: HLA-DRB1*04:01 (Homo sapiens, UniProt P01903+P01911, A100K/A169T/F76Y/I96L/K127E/L162R/M171V/N62H/P40V/Q125Y/R42H/S133A/S149N/S66Y/V115G/V209L/W38E)
Construct: EBV transformed homozygous cell lines were used as sources of MHC molecules; endogenous in cells; host or cells: EBV transformed homozygous cell lines
ASSAY_INFO: HLA class II peptide binding, inhibition of radiolabeled peptide binding to purified MHC
PARTICULARS: citrullinated 15-mer (X); purified MHC, inhibition of radiolabeled peptide binding; dash = IC50 >40,000 nM; read-out: DRB1*04:01 binding capacity, Cit peptide (IC50 nM)
Square brackets hold non-standard residues; d marks the D form. Peptide text beside a SMILES is read from it. Cit = NC(=O)NCCC[C@H](N)C(=O)O
Provide the recorded IC50 for the entries that follow.
Report as a plain number; the unit nM is understood.

I'd like to know its IC50. The molecule in question is CC[C@H](C)[C@H](NC(=O)[C@H](Cc1ccc(O)cc1)NC(=O)[C@H](CC(N)=O)NC(=O)[C@H](C)NC(=O)[C@H](Cc1ccccc1)NC(=O)[C@H](CCCNC(N)=O)NC(=O)[C@H](CC(=O)O)NC(=O)[C@@H](N)CC(N)=O)C(=O)N[C@@H](CC(=O)O)C(=O)N[C@@H](CCCCN)C(=O)N[C@H](C(=O)N[C@@H](CCCNC(=N)N)C(=O)N[C@@H](Cc1ccccc1)C(=O)N[C@@H](CC(C)C)C(=O)N[C@@H](CCC(=O)O)C(=O)O)C(C)C [NDXFANYIDKVRFLE] (H-ND[Cit]FANYIDKVRFLE-OH) 10900

I'd like to know its IC50. The molecule in question is CC(C)C[C@H](NC(=O)[C@H](CCC(N)=O)NC(=O)[C@H](CC(=O)O)NC(=O)[C@@H](NC(=O)[C@H](CCC(N)=O)NC(=O)[C@H](CCCNC(=N)N)NC(=O)[C@H](CCCNC(N)=O)NC(=O)[C@H](CC(C)C)NC(=O)[C@@H](N)CCC(=O)O)C(C)C)C(=O)N[C@H](C(=O)N[C@@H](CC(N)=O)C(=O)N[C@@H](CC(=O)O)C(=O)N[C@@H](CCCCN)C(=O)N[C@@H](C)C(=O)N[C@@H](CCCNC(=N)N)C(=O)O)[C@@H](C)O [ELXRQVDQLTNDKAR] (H-EL[Cit]RQVDQLTNDKAR-OH) 13400
